target: NADPH oxidase 2 (Homo sapiens) (UniProt P04839); assay: compounds shifting NOX2 Amplex Red fluorescence – cell-based, HEK293-NOX2, PMA-stimulated, NOX inhibitor project, primary screen (AID 1159); details: 45 min, higher = more signal, called active from +8 up or from −8 down; further: test concentration not given here
Sequence (P04839 whole entry, looked up): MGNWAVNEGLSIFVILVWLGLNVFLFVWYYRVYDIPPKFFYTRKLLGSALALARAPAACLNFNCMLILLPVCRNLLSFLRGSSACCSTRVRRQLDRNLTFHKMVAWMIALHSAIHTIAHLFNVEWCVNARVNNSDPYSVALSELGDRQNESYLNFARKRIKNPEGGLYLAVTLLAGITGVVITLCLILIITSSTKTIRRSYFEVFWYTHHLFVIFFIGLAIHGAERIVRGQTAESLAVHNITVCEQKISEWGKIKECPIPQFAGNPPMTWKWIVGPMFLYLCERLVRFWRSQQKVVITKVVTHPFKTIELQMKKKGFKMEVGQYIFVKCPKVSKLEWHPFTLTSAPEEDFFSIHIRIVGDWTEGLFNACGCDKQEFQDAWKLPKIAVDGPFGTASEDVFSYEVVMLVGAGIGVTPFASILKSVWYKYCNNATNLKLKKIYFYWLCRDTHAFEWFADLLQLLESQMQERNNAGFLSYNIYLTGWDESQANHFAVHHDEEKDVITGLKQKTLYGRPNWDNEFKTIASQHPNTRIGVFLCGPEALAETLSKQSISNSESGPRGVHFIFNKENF
Active and inactive are the calls of the source.
Metric: z-score

Reference set (4 entries):
1. C[N+](C)(C)CCCC[C@@H]1NC(=O)[C@@H]2C[C@H](C(=O)NCCCCCCNC(=O)CS)[C@H](c3cccc(OCCO)c3)N2C1=O	1.85 (inactive)
2. COc1ccc([Si](C)(C)[C@H]2[C@H](CC(=O)N(CCO)Cc3ccccc3)O[C@@]3(C(=O)N(Cc4cccc(N5C(=O)c6cccc7cccc5c67)c4)c4ccccc43)[C@@H]2C)cc1	0.38 (inactive)
3. C=C(C)[C@@H]1CC=C(C(O)C2C=CC3C(=O)N(Cc4ccccc4)C(=O)C3N2n2cnnc2)CC1 (some centres not stated)	-3.5 (inactive)
4. CCN(CC)c1ccc(N2CC=CC34O[C@@H]5/C=C\CCCOC(=O)C5[C@H]3C(=O)N(CCCO)[C@@H]4C2=O)cc1 (some centres not stated)	0.024 (inactive)

Which z-score reading was recorded for the compound CC(C)N1C(=O)c2ccccc2[C@](C)(C(=O)NC2CC2)[C@@H]1c1ccc(CO)cc1 ?
-0.987 (inactive)

One more compound: O=C1C2C=CC(C(O)CCc3ccccc3)N(Nc3ccccc3)C2C(=O)N1c1ccccc1 (configuration not stated)
-1.26 (inactive)

Input COc1ccc([Si](C)(C)[C@@H]2[C@@H](CCO)O[C@]3(C(=O)N(Cc4cccc(N5CCCCC5=O)c4)c4ccccc43)[C@H]2C)cc1
-2.79 (inactive)
